system: U2OS; assay: Multiplex assay against U2OS; assay type: toxicity, cell-based; settings: human, 12 h, 1 µM, compound concentration 1 uM, replicate 1
observedProperty: Population Healthy Nuclei (%)

> print(dat)
                                   compound  measurementtarget               observedproperty  readingunit  reportedresult
1  COc1ccc2c(c1OCc1ccccc1)C[C@@H](C(=O)O)N(C(=O)C(c1ccccc1)c1ccccc1)C2               U2OS  Population Healthy Nuclei (%)            %              59
2  C=CCN1C[C@H](C(=O)N(CCCN(C)C)C(=O)NCC)C[C@@H]2c3cccc4[nH]cc(c34)C[C@H]21               U2OS  Population Healthy Nuclei (%)            %              72
3  CC(C)(C)c1ccc(CSc2cnn(C(C)(C)C)c(=O)c2Cl)cc1               U2OS  Population Healthy Nuclei (%)            %              61
4  COCCn1c(C)c(C)s/c1=N\C(=O)C1C(C)(C)C1(C)C               U2OS  Population Healthy Nuclei (%)            %              69
5   OCCCNc1cc(-c2ccnc(Nc3cccc(Cl)c3)n2)ccn1               U2OS  Population Healthy Nuclei (%)            %              52
6  CN1CCC(C(=O)c2cccc(NC(=O)c3c(F)cc(F)cc3F)n2)CC1               U2OS  Population Healthy Nuclei (%)            %              70
7  CN1CCN2c3ccccc3Cc3ccccc3C2C1.Cl (centres undefined) [MIANSERIN HYDROCHLORIDE]               U2OS  Population Healthy Nuclei (%)            %              56
8  CC(C)C[C@H](CO)Nc1nc(S[C@@H](C)c2ccccc2)nc2nc(N)sc12               U2OS  Population Healthy Nuclei (%)            %              65
9  COC(c1ccccc1)(c1ccccc1)[C@H](Oc1nc(C)cc(C)n1)C(=O)O               U2OS  Population Healthy Nuclei (%)            %              62

----------
test system: Fibroblast; experiment: Multiplex assay against human fibroblast; format: toxicity, cell-based; settings: 24 h, 1 µM, compound concentration 1 uM, replicate 1
Property: Population Mitochondria Different-Phenotype (%); scope: individual compounds
observedProperty: Population Mitochondria Different-Phenotype (%)

> print(dat)
                                   compound  reportedresult
1  Cc1sc2c(c1C)C(c1ccc(Cl)cc1)=N[C@H](CC(=O)OC(C)(C)C)c1nnc(C)n1-2               2
2  C[C@H](NC(=O)CNC(=O)c1cccc(Cl)c1)c1ccccc1               3
3   OCCCNc1cc(-c2ccnc(Nc3cccc(Cl)c3)n2)ccn1              20
4  CSc1nc(NC2CCCC2)c([N+](=O)[O-])c(NC2CCCC2)n1 [GS-39783]               4
5  Cc1cc(=O)n(C)c2cc(N3C(=O)CC[C@H](NS(=O)(=O)CC(C)C)[C@H]3c3ccc(Cl)cc3)ccc12               4
6  O=C(O)CCC/C=C\CC1C(O)CC(O)C1/C=C/C(O)COc1cccc(Cl)c1 (centres undefined) [CLOPROSTENOL]               3
7  CN1CCC(C(=O)c2cccc(NC(=O)c3c(F)cc(F)cc3F)n2)CC1               2
8  CN1CCN(c2ccc(Nc3c4ccccc4nc4ccccc34)cc2)CC1.Cl.Cl.O               2
9  S=C(NCCCc1c[nH]cn1)NCCCN(Cc1ccc(Cl)c(Cl)c1)c1ccc(Br)cn1               2
